Each recorded value in this set is attributed to ChEMBL document CHEMBL3271942.

Below, each entry is listed with its recorded Activity.
tested on: Canis familiaris; test: Diuretic activity in mongrel dog assessed as excretion of potassium ion at 10 mg/kg, iv measured after 15 and 45 mins (reference value: 16 to 37 uequiv/min); type: functional, Canis lupus familiaris, Urine
// units = uEq/min; emit number, no label

CC(=O)/C=C/c1ccc(OCC(=O)O)cc1Cl 79

Sample CC(=O)/C=C/c1ccc(OCC(=O)O)cc1 , system: Canis familiaris. Its Activity is 50

Sample CCC(=O)/C(C)=C/c1ccc(OCC(=O)O)c(Cl)c1Cl , system: Canis familiaris. Its Activity is 42

Sample O=C(O)COc1ccc(/C=C2\CCC2=O)c(Cl)c1Cl , system: Canis familiaris. Its Activity is 93

Sample CCC(=O)/C=C/c1ccc(OCC(=O)O)c(Cl)c1Cl , system: Canis familiaris. Its Activity is 118

Sample C=C(CC)C(=O)c1ccc(OCC(=O)O)c(Cl)c1Cl , system: Canis familiaris. Its Activity is 194
